EXPERIMENTAL_TARGET: GST-Flk1 (Mus musculus)
Construct: GST-Flk1cd purified from sf9 recombinant baculovirus transformation (SUGEN, Inc.); host or cells: Sf9 insect cells (recombinant baculovirus)
Sequence (P35918 784-1345 limits assumed): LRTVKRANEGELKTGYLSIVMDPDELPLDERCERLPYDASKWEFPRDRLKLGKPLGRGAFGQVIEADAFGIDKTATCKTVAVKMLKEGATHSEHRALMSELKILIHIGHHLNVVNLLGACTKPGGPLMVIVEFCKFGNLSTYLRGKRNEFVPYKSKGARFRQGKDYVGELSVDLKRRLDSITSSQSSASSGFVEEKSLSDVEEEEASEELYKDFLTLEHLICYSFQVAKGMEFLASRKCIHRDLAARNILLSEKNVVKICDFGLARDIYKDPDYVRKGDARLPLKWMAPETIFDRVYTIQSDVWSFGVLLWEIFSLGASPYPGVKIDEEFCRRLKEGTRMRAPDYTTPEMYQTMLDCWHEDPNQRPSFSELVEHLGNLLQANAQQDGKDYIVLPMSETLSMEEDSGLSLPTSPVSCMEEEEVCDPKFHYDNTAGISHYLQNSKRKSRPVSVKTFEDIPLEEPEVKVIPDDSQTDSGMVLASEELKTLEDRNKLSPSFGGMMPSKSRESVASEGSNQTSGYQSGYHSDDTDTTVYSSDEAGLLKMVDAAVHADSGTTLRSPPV
TEST_PROTOCOL: GST-FLK-1 bioassay (ELISA, tyrosine kinase activity on poly(glu,tyr))
Assay type: biochemical
OBSERVED_PROPERTY: IC50

Take a look at these entries with their results.
MOLECULE: O=C(Nc1ccccc1)c1cccc(Nc2ncc(-c3cccs3)cn2)c1 [Example 18]
EXPERIMENTAL_TARGET: GST-Flk1 (Mus musculus)
IC50: > 20 µM

MOLECULE: O=C(O)c1cccc(Nc2ncc(-c3cccs3)cn2)c1 [Example 17]
EXPERIMENTAL_TARGET: GST-Flk1 (Mus musculus)
IC50: > 20 µM

MOLECULE: O=C(CN1CCCC1CN1CCCC1)Nc1ccc(Nc2ncc(-c3ccsc3)cn2)cc1 (stereo not drawn) [Example 22]
EXPERIMENTAL_TARGET: GST-Flk1 (Mus musculus)
IC50: 4.5 µM

MOLECULE: CC(=O)Nc1cccc(Nc2ncc(-c3cccs3)cn2)c1 [Example 14]
EXPERIMENTAL_TARGET: GST-Flk1 (Mus musculus)
IC50: 4.17 µM

MOLECULE: CCN(CC)CC(=O)Nc1cccc(Nc2cnc(-c3ccsc3)cn2)c1 [Example 41]
EXPERIMENTAL_TARGET: GST-Flk1 (Mus musculus)
IC50: > 20 µM

Ask | Fill blank: measured IC50 of the molecule O=C(Nc1ccc(F)cc1)Nc1ncc(-c2ccsc2)cn1 [Example 10] is ____.
Reply | > 20 µM

Ask | Consider next the molecule O=C(CN1CCOCC1)Nc1cccc(Nc2cnc(-c3ccsc3)cn2)c1 [Example 42] in the same way.
Reply | > 20 µM

Ask | Consider next the molecule Nc1ccc(C(=O)Nc2ccc(Nc3ncc(-c4cccs4)cn3)cc2)cc1 [Example 16] in the same way.
Reply | > 20 µM

Ask | Consider next the molecule Nc1ccc(C(=O)Nc2ccc(Nc3ncc(-c4ccsc4)cn3)cc2)cc1 [Example 4] in the same way.
Reply | > 20 µM

Ask | Consider next the molecule COc1ccc(NC(=O)Nc2ncc(-c3ccsc3)cn2)cc1 [Example 9] in the same way.
Reply | > 20 µM

Ask | Consider next the molecule Nc1cccc(Nc2ncc(-c3csc4ccccc34)cn2)c1 [Example 20] in the same way.
Reply | > 20 µM

Ask | Consider next the molecule c1cc(-c2cnc(Nc3ccc(N4CCOCC4)cc3)nc2)cs1 [Example 3] in the same way.
Reply | > 20 µM
